Recorded MIC, one value per entry.
System: Staphylococcus aureus
METHOD_NOTES: Antibacterial activity against Staphylococcus aureus isolate by conventional agar dilution method
Assay type: functional

| STRUCTURE | TEST_TARGET | VALUE_MEASURED |
| --- | --- | --- |
| Cc1cc(NS(=O)(=O)c2ccc(N)cc2)no1 | Staphylococcus aureus | 4 mg/L |

MIC lookup needed for O=C(NS(=O)(=O)c1ccccc1)c1ccccc1 , thanks. 500 mg/L

MIC lookup needed for CCCCC(=O)NS(=O)(=O)c1ccc(C)cc1 , thanks. > 1000 mg/L

MIC lookup needed for Cc1ccc(S(=O)(=O)NC(=O)c2ccccc2)cc1 , thanks. 256 mg/L

MIC lookup needed for CCC(=O)NS(=O)(=O)c1ccccc1 , thanks. 256 mg/L

MIC lookup needed for CS(=O)(=O)NC(=O)c1ccccc1 , thanks. 256 mg/L

MIC lookup needed for CC(=O)NS(=O)(=O)c1ccccc1 , thanks. > 1000 mg/L

MIC lookup needed for CCCCC(=O)NS(=O)(=O)c1ccccc1 , thanks. > 1000 mg/L

MIC lookup needed for CCC(=O)NS(=O)(=O)c1ccc(C)cc1 , thanks. 128 mg/L
